Could you please report measured TGI for the items listed next?
# System: KM20L2 colon
# EXPERIMENT_DESCRIPTION: NCI tumour cell line growth inhibition, 48 h
Numbers only, in µM.

Please review the following examples before continuing.
MOLECULE: C[C@@H](CN1CC(=O)NC(=O)C1)N1CC(=O)NC(=O)C1
TGI (µM): 1290
//
MOLECULE: CN(C)CCSc1cccc(-c2cc(-c3cccc(SCCN(C)C)c3)nc(SCCN(C)C)n2)c1
TGI (µM): 3.46
//
MOLECULE: C=C1C(=O)OC2/C=C(/C)C3CC(O)C(C)(CC(OC(=O)/C(C)=C/C)C12)O3 (stereo not given)
TGI (µM): 13.1

In plain terms, COC1C(O)C(C)OC(OC2C(Oc3cccc4c(O)c5c(=O)oc6ccc(C)c7c(=O)oc(c34)c5c67)OC(C)C(O)C2O)C1O (stereo not given) has a documented TGI of 18.5

----------
# Test system: MDA-MB-435
The reply should be one of these categories: 1 (active), 0 (inactive)

// known answers, use as guide
STRUCTURE_AS_SMILES: CN1C(=O)[C@@H](NC(=O)[C@H](CCC(F)(F)F)[C@H](CCC(F)(F)F)C(N)=O)N=C(c2ccccc2)c2ccccc21
LABEL: 0

STRUCTURE_AS_SMILES: S=C(Nc1ccc(Cl)cc1)Nc1ccc(-c2nc3ccccc3o2)cc1
LABEL: 0

STRUCTURE_AS_SMILES: CN1CCN(c2ccc(Nc3nc(N)c(C(=O)c4ccc5c(c4)OCCO5)s3)cc2)CC1
LABEL: 0

STRUCTURE_AS_SMILES: Cc1cc(Nc2c3ccccc3nc3ccccc23)ccc1NS(C)(=O)=O
LABEL: 0

STRUCTURE_AS_SMILES: N#CC(C#N)N=Nc1ccc(Br)cc1
LABEL: 0

STRUCTURE_AS_SMILES: COc1ccc(-c2nc(C(=O)c3ccccc3)n(CC(=O)c3ccccc3)c2-c2ccc(OC)cc2)cc1
LABEL: 0

STRUCTURE_AS_SMILES: CC(C)CC(=O)Nc1n[nH]c2c1CN(C(=O)C1CCN(C)CC1)C2(C)C
LABEL: 0

STRUCTURE_AS_SMILES: O=Cc1ccc(-c2ccc(-c3nc4ccccc4o3)cc2)s1
LABEL: 0

Name the outcome recorded for `CCCCCCCCCc1cc[n+](CC(=O)c2ccc([N+](=O)[O-])cc2)cc1` in the assay. 1

Name the outcome recorded for `CC#C/C(=N\OC[C@H]1COCCN1)c1ccc2ncnc(Nc3ccc(OCc4cccc(F)c4)c(Cl)c3)c2c1` in the assay. 0

Name the outcome recorded for `O=c1c(O)cccc2cc(O)c(O)c(O)c12` in the assay. 0

----------
# System: MDA-MB-435
# EXPERIMENT_DESCRIPTION: NCI tumour cell line growth inhibition, 48 h
MEASUREMENT_NAME: TGI

Okay, here is my list. What is TGI for each of these?
1. COc1cc2c(cc1OC)C(OC)N(C)c1c-2ccc2cc3c(cc12)OCO3 (stereo not given)
2. CN(C)CC1COC2Cc3ccccc3C1O2 (stereo not given)
3. N#CC(C#N)N=Nc1ccc(Br)cc1
4. CN1C(=O)[C@@H](NC(=O)[C@H](CCC(F)(F)F)[C@H](CCC(F)(F)F)C(N)=O)N=C(c2ccccc2)c2ccccc21
5. O=C1CC(=O)NC(=NN2C(=O)/C(=C/c3ccccc3)N=C2c2ccccc2)N1
6. COC1=CC23CCCN2CCc2cc4c(cc2C3C1O)OCO4 (stereo not given)
7. COC1C(O)C(C)OC(OC2C(Oc3cccc4c(O)c5c(=O)oc6ccc(C)c7c(=O)oc(c34)c5c67)OC(C)C(O)C2O)C1O (stereo not given)

1: > 75 µM; 2: > 100 µM; 3: 20 µM; 4: > 100 µM; 5: > 100 µM; 6: > 100 µM; 7: 8.29 µM
